Sourced from patent EP4786492A1

# Lookup of reported MFI keyed by entry
system_under_test: DLL3 endogenously expressed on NCI-H82 cells (UniProt Q9NYJ7)
Sequence (Q9NYJ7 27-618): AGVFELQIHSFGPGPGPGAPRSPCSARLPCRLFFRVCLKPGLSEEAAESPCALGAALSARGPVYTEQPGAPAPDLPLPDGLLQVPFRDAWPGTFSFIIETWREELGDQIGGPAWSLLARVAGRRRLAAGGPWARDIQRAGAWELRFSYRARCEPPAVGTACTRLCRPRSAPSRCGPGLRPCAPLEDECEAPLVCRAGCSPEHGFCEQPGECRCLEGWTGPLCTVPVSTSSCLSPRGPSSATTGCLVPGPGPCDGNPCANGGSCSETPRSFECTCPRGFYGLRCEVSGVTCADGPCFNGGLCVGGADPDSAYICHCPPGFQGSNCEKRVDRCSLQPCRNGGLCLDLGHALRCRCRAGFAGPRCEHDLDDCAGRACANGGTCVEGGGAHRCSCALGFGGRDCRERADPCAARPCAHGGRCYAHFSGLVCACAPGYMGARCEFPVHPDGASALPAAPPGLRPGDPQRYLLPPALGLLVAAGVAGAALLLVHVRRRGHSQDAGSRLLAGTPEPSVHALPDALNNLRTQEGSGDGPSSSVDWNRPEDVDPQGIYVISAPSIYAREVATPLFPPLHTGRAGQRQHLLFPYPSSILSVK
assay_explanation: FACS on NCI-H82 cells; antibody 20 nM
No unit in the answer, only the number.

Reference set, count: 2
Hab008L3H5-hFc (scFv, part only; not given: scFv linker and human IgG1 Fc, V domains shown, not shown: another chain or arm of the molecule; a dimerising Fc or GST; small tags and cut ends) VL: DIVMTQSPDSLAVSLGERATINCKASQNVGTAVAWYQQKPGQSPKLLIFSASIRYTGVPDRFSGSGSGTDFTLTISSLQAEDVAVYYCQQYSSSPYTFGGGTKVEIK VH: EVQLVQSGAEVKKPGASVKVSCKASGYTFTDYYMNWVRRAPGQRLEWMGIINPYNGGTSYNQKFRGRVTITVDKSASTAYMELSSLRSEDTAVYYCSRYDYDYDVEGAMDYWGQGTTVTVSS; 674
Hab009VL2aVH1-hFc (Fc fusion, part only; not given: Linker and human IgG1 Fc, not shown: a dimerising Fc or GST) chain, part: DIVMTQSPLSLPVTPGEPASISCRASQTISDYLHWYLQKPGQSPRLLIKYASQSISGVPDRFSGSGSGTDFTLKISRVEAEDVGVYYCQQGHSFPLTFGQGTKLEIKEVQLVQSGAEVKKPGASVKVSCKASGYTFTSYWMHWVRQAPGQRLEWMGTIYPGNSDTRYNQKFKDRVTITADTSASTAYMELSSLRSEDTAVYYCTRSYDYGDLDYWGQGTTVTVSS; 789

Name the recorded MFI of the binder listed here: mab006 scFv-hFc (Fc fusion, part only; not given: linker and human IgG1 Fc, not shown: a dimerising Fc or GST) chain, part: DVQITQSPSYLAASPGETITINCRATKSISKYLAWYQEKPGKTNKLLIFSGSTLQSGIPSRFRGSGSGTDFTLTISSLEPEDFAMYYCQQHHEYPYTFGGGTKLEIKQVQLQQPGAELVRPGTSVKLSCKASGYTFTSYWMHWVRQRPGQGLEWIGVIDPSDSLANYNQEFKGKATLTVDTSSSTAYMQLSSLTSEDSAVYYCARDSTVVAPMDYWGQGTSVTVSS
488
